- Test system: MS2 coat protein
- measurementNotes: apparent KD of MS2 coat protein; designed switch direction (-1 OFF switch, 1 ON switch): 1; higher = weaker reporter binding
- statedConditions: input ligand: none
Outcome: yes (1) for apparent KD of MS2 coat protein of at least 60 nM; no (0) for anything lower.

stdin: Does apparent KD of MS2 coat protein meet or surpass 60 nM for GUGCUCGUGUGAGGAUAUGCUUCCGGUUCGGCUGCAGAAGGUACUAUUAUACAUGAGGAUCACCCAUGUCGCUUUUCUCCGGUG [salish99_SSNG1_r04_916] (Eterna round: R96, puzzle: Same State NG 1) ?
stdout: no (0)

stdin: What about this sequence? CGCAUCAUUGUUACAUGAGGAUCACCCAUGUUUUCGAGUGGAGAGGAUAUCGUAACAGUAUAAAUCGAGAAGGCUCUAUAGUAU [JR_SSNG3_Sub082] (Eterna round: R96, puzzle: Same State NG 3)
stdout: yes (1)

stdin: What about this sequence? CAAGAAAACGCAGGAUAUACCCGGACAACCCGGGUAGAAGGGUGACACAUGAGGAUCACCCAUGUACAUGGCAAUAACCAUGGA [Sobiais] (Eterna round: R96, puzzle: Same State NG 1)
stdout: no (0)

stdin: What about this sequence? AUAAAACAUGAGGAUCACCCAUGUAGACGGAGAGCCGUCACAUAGGAUAUAGCCAGCGGUGUUGGCUAGAAGGGUGGUAGAAAA [Lavezaer] (Eterna round: R96, puzzle: Same State NG 3)
stdout: yes (1)

stdin: What about this sequence? AGCUAUUAAUCAGGAUAUAGUGACAUGAGGAUCACCCAUGUAUUGAUGAUGAAAUGUGGUCGCCGCUAGAAGGGAUUACUAACA [SameState NG2 #45] (Eterna round: R96, puzzle: Same State NG 2)
stdout: no (0)

stdin: What about this sequence? AUCAAAUACCUAGGAUAUAGUACACACAGCGGGCUAGAAGGAGGCGACCACGCUGACAUGAGGAUCACCCAUGUCCAACAGGAU [Eternabot solution 19] (Eterna round: R96, puzzle: Same State NG 1)
stdout: no (0)

stdin: What about this sequence? GAGCCAGUCCGAGGAUAUUCAUAACAUGAGGAUCACCCAUGUAGGCUCAGAAAAGAAGAGCCUUGGGAGAAGGCGGACUGGCUC [Xeonanisa<<5] (Eterna round: R96, puzzle: Same State NG 2)
stdout: no (0)
